system_under_test: FAAH (Homo sapiens, UniProt O00519)
Construct: Human bladder epithelial carcinoma-derived cell line, 5637 cells (HTB-9; host or cells: 5637 human bladder epithelial carcinoma cells
Sequence (O00519 1-579): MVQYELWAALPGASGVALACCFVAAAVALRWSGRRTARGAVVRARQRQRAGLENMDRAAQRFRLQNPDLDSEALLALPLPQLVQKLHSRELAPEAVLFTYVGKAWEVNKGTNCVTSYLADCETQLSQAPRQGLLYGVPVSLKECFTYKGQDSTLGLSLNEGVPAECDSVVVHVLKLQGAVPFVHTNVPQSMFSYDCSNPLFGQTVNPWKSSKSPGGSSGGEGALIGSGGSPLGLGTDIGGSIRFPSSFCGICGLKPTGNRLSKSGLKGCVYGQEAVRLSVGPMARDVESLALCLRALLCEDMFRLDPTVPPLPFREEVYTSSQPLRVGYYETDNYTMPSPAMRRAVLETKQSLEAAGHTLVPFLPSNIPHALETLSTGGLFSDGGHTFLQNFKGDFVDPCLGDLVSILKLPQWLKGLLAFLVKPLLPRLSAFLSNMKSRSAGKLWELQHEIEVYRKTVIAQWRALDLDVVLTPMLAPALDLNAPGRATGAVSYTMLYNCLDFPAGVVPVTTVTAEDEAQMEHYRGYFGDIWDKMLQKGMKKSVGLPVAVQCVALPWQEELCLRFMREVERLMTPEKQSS
assay_notes: Measurement of IC50 value of substance inhibiting FAAH activity using human bladder epithelial carcinoma-derived cell line 5637
Format: cell-based
property_label: pIC50
Answers are plain numbers, as −log10 of the molar value.

Request: Please report the recorded pIC50 for NC(=O)c1cncc(OC(=O)N2CCC(CCc3cccc(C(=O)N4CCCCC4)c3)CC2)c1 .
Response: 9.80

Where do the numbers come from? From patent US20130030006A1.
